TEST_DETAILS: chemical genetic growth profiling, strain panel (AID 1159580);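 further: tested at 20 µM; growth read once vehicle control cultures reached saturation at 30 °C; 1 = growth at the plate median or of vehicle wells; lower values mean less growth of the strain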
EXPERIMENTAL_PARAMETERS: S. cerevisiae deletion strains, growth OD, locus YJL134W, strain LCB3, stronger effect = lower value
Hit rate of the full screen: of about 5,500 compounds, about 2,000 (36%) were called active. Roughly 18% stayed inconclusive and do not appear here. The list shows a part of the results.
ENDPOINT: normalized growth
Numbers only.

I'm hoping you can list normalized growth for every compound here, please.
1. C[C@](N)(Cc1ccc(O)c(O)c1)C(=O)O
2. CC[C@]12CCCN3CCc4c(n(c5ccccc45)C(=O)C1)[C@@H]32
3. COc1ccc(/C=C/C(=O)O)cc1OC
4. O=C1OCCN1/N=C\c1ccc([N+](=O)[O-])o1
5. COc1ccc(/C=C/c2cc(O)cc(O[C@@H]3O[C@H](CO)[C@@H](O)[C@H](O)[C@H]3O)c2)cc1O
6. OCC(S)CS (configuration not stated)
7. O=C1N=C(O)CN1/N=C\c1ccc(-c2ccc([N+](=O)[O-])cc2)o1

Resp:
1. 0.976
2. 0.993
3. 1.01
4. 0.998
5. 1.01
6. 0.994
7. 1.01

Source of measurements: PubChem BioAssay AID1159580
